Task for the reader: assign each of the following molecules its reported pIC50.
- Test system: human monocytic cell line U937
- Measurement Notes: Human U937 Cellular Necroptosis Assay
- Assay type: cell-based
- Run Conditions: U-937; U937 cells stimulated with 25 ng/mL human TNFalpha and 25 μM z-VAD-FMK, 22 hr, viability by Cell Titer-Glo 2.0; average value across multiple runs; read-out: hU937 IC50
One number for each entry, as −log10 of the molar value.

# Molecule, Target Under Test, pIC50
measured = [
    ("Cc1cc(=O)c(C(=O)N[C@H]2COc3cccnc3NC2=O)nn1-c1ccccc1 [Example 63]", "human monocytic cell line U937", 6.32),
    ("Cc1cc(=O)c(C(=O)N[C@@H]2C(=O)Nc3ncccc3O[C@@H]2C)nn1-c1ccccc1 [Example 80]", "human monocytic cell line U937", 5.43),
    ("Cc1cc(=O)c(C(=O)NC2CCc3cc(F)cc(F)c3N(C)C2=O)nn1-c1ccccc1 (centres unmarked) [Example 49]", "human monocytic cell line U937", 7.18),
]

Look at each molecule and report its pIC50.
1. Cc1cc(=O)c(C(=O)N[C@H]2COc3cc(C#N)ccc3N(C)C2=O)nn1-c1ccccc1 [Example 55]
2. Cc1cccc(C2CC2)c1NC(=O)c1nn(-c2ccccc2)c(C)cc1=O [Example 26]
3. Cc1cc(=O)c(C(=O)NC2CCc3ccccc3NC2=O)nn1-c1cccc(Cl)c1 (centres unmarked) [Example 68]
4. Cc1ccc(-n2nc(C(=O)NC3CCc4ccccc4NC3=O)c(=O)cc2C)cn1 (centres unmarked) [Example 51]
5. Cc1cc(=O)c(C(=O)Nc2cccc(Cl)c2F)nn1-c1cccc(Cl)c1 [Example 17]
6. Cc1cc(=O)c(C(=O)NC2CCc3cc(F)cc(F)c3NC2=O)nn1-c1ccccc1 (centres unmarked) [Example 48]
7. COc1cc2c(cn1)N(C)C(=O)C(NC(=O)c1nn(-c3ccccc3)c(C)cc1=O)CC2 (centres unmarked) [Example 81]

**Result**
1: 7.27; 2: 5.50; 3: 6.85; 4: 5.77; 5: 6.20; 6: 7.15; 7: 6.10

Below are 3 molecules. Give each one its pIC50.
1. Cc1c(Cl)c(=O)c(C(=O)NC2CCc3ccccc3NC2=O)nn1-c1ccccc1 (centres unmarked) [Example 39]
2. Cc1cc(=O)c(C(=O)N[C@H]2COc3cccnc3N(C)C2=O)nn1-c1ccccc1 [Example 50]
3. Cc1cc(=O)c(C(=O)N[C@H]2COc3cc(C#N)ccc3N(C)C2=O)nn1-c1ccc(C#N)cc1 [Example 60]

**Result**
[7.16, 7.48, 6.37]

* * *

Assign pIC50 to each entry below.
- System: human monocytic cell line U937
- Measurement Notes: Human U937 Cellular Necroptosis Assay
- Type: cell-based
- Run Conditions: U-937; U937 cells stimulated with 25 ng/mL human TNFalpha and 25 μM z-VAD-FMK, 22 hr, viability by Cell Titer-Glo 2.0; average value across multiple runs; read-out: hU937 IC50
Numbers only, as −log10 of the molar value.

# Compound, pIC50
data = [
    ("Cc1cc(=O)c(C(=O)NC2CCc3ccccc3NC2=O)nn1-c1ccccc1F (centres unmarked) [Example 59]", 7.13),
]

Batch request: pIC50 for each of the following compounds.
1. Cc1c(Br)c(=O)c(C(=O)NC2CCc3cc(C#N)ccc3NC2=O)nn1-c1ccccc1 (centres unmarked) [Example 44]
2. Cc1cc(=O)c(C(=O)NC2CCc3ccccc3NC2=O)nn1-c1ccc(C#N)cc1 (centres unmarked) [Example 56]
3. Cc1c(C#N)c(=O)c(C(=O)NC2CCc3ccccc3N(C)C2=O)nn1-c1ccccc1 (centres unmarked) [Example 47]
4. Cc1cc(=O)c(C(=O)NC2CCc3ccccc3-n3ccnc32)nn1-c1ccccc1 (centres unmarked) [Example 73]

**Result**
1. 6.80
2. 6.53
3. 7.07
4. 6.53

Please report pIC50 for every entry that follows.
1. Cc1cc(=O)c(C(=O)N[C@@H]2C(=O)N(C)c3ncccc3O[C@@H]2C)nn1-c1ccccc1 [Example 78]
2. CCN1C(=O)[C@@H](NC(=O)c2nn(-c3ccccc3)c(C)cc2=O)COc2cccnc21 [Example 76]

**Result**
6.82
5.25

Could you report pIC50 for every entry in the following list?
1. Cc1cc(=O)c(C(=O)NC2CCc3ccccc3NC2=O)nn1-c1cncc(F)c1 (centres unmarked) [Example 79]
2. Cc1cc(=O)c(C(=O)Nc2cccc(Cl)c2F)nn1-c1ccccc1F [Example 8]
3. Cc1cccc(-n2nc(C(=O)NC3CCc4ccccc4NC3=O)c(=O)cc2C)c1 (centres unmarked) [Example 64]
4. Cc1c(Cl)c(=O)c(C(=O)NC2CCc3cc(Cl)ccc3N(C)C2=O)nn1-c1ccccc1 (centres unmarked) [Example 45]
5. Cc1ccc(-n2nc(C(=O)N[C@H]3COc4cccnc4N(C)C3=O)c(=O)cc2C)cc1F [Example 75]
6. Cc1cc(=O)c(C(=O)NC2CCc3ccccc3N(C)C2=O)nn1-c1ccccc1 (centres unmarked) [Example 41]

**Result**
1. 6.29
2. 6.76
3. 7.11
4. 7.14
5. 7.55
6. 7.41

* * *

Let's go through some recorded pIC50 values for RIPK1 (Homo sapiens (Human), UniProt Q13546) together.
One number for each entry, as −log10 of the molar value.

Below: 3 compounds and their reported pIC50.
# Compound, Measurement Name, Val
data = [
    ("Cc1ccc(-n2nc(C(=O)NC3CCc4ccccc4NC3=O)c(=O)cc2C)cn1 (stereo not drawn)", "pIC50", 5.71),
    ("CN1C(=O)C(NC(=O)c2nn(-c3ccccc3)c(CCl)c(Cl)c2=O)CCc2cc(Cl)ccc21 (stereo not drawn)", "pIC50", 5.84),
    ("Cc1cccc(C(F)(F)F)c1NC(=O)c1nn(-c2ccccc2)c(C)cc1=O", "pIC50", 5.94),
]

Report pIC50 for every entry below.
1. Cc1cnc2ccccc2c1NC(=O)c1nn(-c2ccccc2)c(C)cc1=O
2. Cc1ccnc(NC(=O)c2nn(-c3ccccc3F)c(C)cc2=O)c1
3. Cc1cc(=O)c(C(=O)N[C@H]2COc3cc(C#N)ccc3N(C)C2=O)nn1-c1ccccc1
4. Cc1cc(=O)c(C(=O)NC2CCc3ccccc3NC2=O)nn1-c1ccccc1 (stereo not drawn)
5. Cc1cccc(NC(=O)c2nn(-c3ccccc3F)c(C)cc2=O)n1
6. COc1cccc(-n2nc(C(=O)NC3CCc4ccccc4NC3=O)c(=O)cc2C)c1 (stereo not drawn)
7. Cc1cc(=O)c(C(=O)NC2CCc3ccccc3NC2=O)nn1-c1ccc(C#N)cc1 (stereo not drawn)
8. Cc1cc(=O)c(C(=O)NC2CCc3cc(F)cc(F)c3NC2)nn1-c1ccccc1 (stereo not drawn)

**Result**
6.28
5.20
7.48
7.24
5.40
7.17
7.07
5.07

Provide each entry's pIC50 from the list below.
1. COc1ccc(-n2nc(C(=O)NC3CCc4ccccc4NC3=O)c(=O)cc2C)cc1 (stereo not drawn)
2. Cc1cc(=O)c(C(=O)Nc2cc(Cl)c3cn[nH]c3c2)nn1-c1ccccc1

**Result**
7.32
5.33

Please go through the list and note pIC50 for each compound.
1. Cc1cc(=O)c(C(=O)NC2CCc3ccccc3NC2=O)nn1-c1ccccc1F (stereo not drawn)
2. Cc1cc(=O)c(C(=O)Nc2cc(Cl)cc(C#N)c2)nn1-c1ccccc1
3. Cc1cc(=O)c(C(=O)Nc2cc(F)cc(F)c2)nn1-c1ccccc1
4. Cc1cc(=O)c(C(=O)N[C@H]2COc3cccnc3N(C)C2=O)nn1-c1ccccc1

**Result**
7.47
5.75
6.38
7.55

**Query** What value of measured pIC50 is listed for Cc1cc(=O)c(C(=O)Nc2ccc3nn[nH]c3c2)nn1-c1ccccc1 ?
**Result** 5.10

* * *

- System: human monocytic cell line U937
- Measurement Notes: Human U937 Cellular Necroptosis Assay
- Assay type: cell-based
- Run Conditions: U-937; U937 cells stimulated with 25 ng/mL human TNFalpha and 25 μM z-VAD-FMK, 22 hr, viability by Cell Titer-Glo 2.0; average value across multiple runs; read-out: hU937 IC50
pIC50: −log10 of the molar value.
Label key: Yes means pIC50 under 7; No means pIC50 of 7 or more.

Here are 2 compounds together with their reported answers.
# Compound, Group
measured = [
    ("Cc1cc(=O)c(C(=O)NC2CCc3ccccc3NC2=O)nn1-c1cccc(F)c1 (centres unmarked) [Example 54]", "No"),
    ("Cc1c(Cl)c(=O)c(C(=O)NC2CCc3cc(Cl)ccc3NC2=O)nn1-c1ccccc1 (centres unmarked) [Example 40]", "No"),
]

**Query** Given Cc1c(Cl)c(=O)c(C(=O)N[C@H]2COc3cccnc3N(C)C2=O)nn1-c1ccccc1 [Example 74] , is recorded pIC50 strictly lower than 7?
**Result** No

**Query** # TODO verify pIC50 < 7 strictly for this compound: Cc1cc(=O)c(C(=O)Nc2c3ccccc3nc3ccccc23)nn1-c1ccccc1 [Example 33]
**Result** Yes

**Query** Say whether its pIC50 is strictly beneath 7. Entry: Cc1cc(=O)c(C(=O)Nc2c(Br)cccc2C(C)C)nn1-c1ccccc1 [Example 24]
**Result** Yes
